assay: physchem; settings: pH 7.4, aqueous buffer, kinetic from dmso stock
test-readout: solubility kinetic at 24 h
Write the numeric value and follow it with the unit.

Given CC(=O)c1c(C)c2cnc(Nc3ccc(N4CCNCC4)cn3)nc2n(C2CCCC2)c1=O , respond with its solubility kinetic at 24 h.
103 µM

###

For each record, write down the corresponding efflux ratio at 2 h, 2 μM.
test: Two-way permeability evaluation assay of Caco-2 cells; details: human, Caco-2, pH 7.4
Output: the number by itself.

Given CC(=O)c1c(C)c2cnc(Nc3cnc(N4CCN(C(C)C)CC4)cn3)cc2n(C2CCCC2)c1=O [Example 3] , respond with its efflux ratio at 2 h, 2 μM.
1.14

Given CC(=O)c1c(C)c2cnc(Nc3cnc(N4CCN(CCN(C)C)CC4)cn3)cc2n(C2CCCC2)c1=O [Example 34] , respond with its efflux ratio at 2 h, 2 μM.
14
